- system: T1, AS154 VHH (camel-derived)
- T1 construct: One of the 10 different camel-derived nanobodies; not shown: His tag (VHH-His)
- T1 sequence (VHH, as listed by the source): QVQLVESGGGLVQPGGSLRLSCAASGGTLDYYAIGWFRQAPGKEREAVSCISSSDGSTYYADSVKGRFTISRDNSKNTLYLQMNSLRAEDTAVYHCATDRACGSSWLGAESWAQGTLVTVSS
- experimental_protocol: indirect ELISA, VHH coated
assay_readout: binding result

Worked examples follow.
| binder | assay_readout | result |
| --- | --- | --- |
| R166.E5 (antibody, V domains shown, Rabbit monoclonal; also called clone R166.E5) VH: QSLEESGGRLVTPGTPLTLTCTASGFSLSGYYMIWVRQAPGKGLEYIGIVTSSGSTHYASWANGRFAISKTSSTTVDLKMPSLTTEDTATYFCAREGGWAFDLWGQGTLVTVSS VL: QVLTQTPFSVSTAVGGTVTINCQSSESVANSNWLSWYQQKPGQPPKLLIYWASKLASGVPSRFSGSGSGTQFTLTISGVQCADAATYYCQGGYTSDRRAFGGGTEVVVKG | binding result | binds |
| R166.G8 (antibody, V domains shown, Rabbit monoclonal; also called clone R166.G8) VH: LEQSGGGAEGGLVKPGGSLELCCKASGFSLSNIYWICWVRQAPGTGLEWIGCINSGSNSYTYYANWVDGRFTLSRDIDQSTGCLQLNSLTAADTAMYYCARDRDAADTSDWSLNFWGQGTLVTVSS VL: QVLTQTPSSVSAAVGGTVTISCQSSDSVNNDNWLAWYQQKPGQPPKLLIYQASKLASGVPSRFSGSGSGTQFTLTISGVQCDDAANYYCQGTGYSSTWYVAFGGGTEVVVKG | binding result | binds |
| R166.D1 (antibody, V domains shown, Rabbit monoclonal; also called clone R166.D1) VH: QSVEESGGRLVKPDESLTLTCTVSGFSLSNYDMIWVRQAPGKGLEWIGVIYPTGTTYYANWVKGRFTISKTSTTVGLLITSPTTEDTATYFCARKPILYVDSSGWYIDLWGQGTLVTVSS VL: AYDMTQTPSSVSAAVGGTVSIKCQASENINNYLSWYQQKPGQPPKLLIYQASRLASAVPSRFKGSGSGTQFTLTIDDLECADAATYYCQQGHSVSNDVGNVFGGGTEVVVKG | binding result | binds |
| R166.G2 (antibody, V domains shown, Rabbit monoclonal; also called clone R166.G2) VH: QSLEESGGRLVKPDETLTITCTVSGIDLSSDAMSWVRQAPGKGLEWIGLINRYGNTYYASWAKGRFTISKTSTTVDLKVTSLTTEDTATYFCARYGTDSDFYFLDLWGQGTLVTVSS VL: DIVMTQTPASVSEPVGGTVTIKCQASQSIYSYLSWYQQKPGQRPKLLIYKASKLVSGVPSRFRGSGSGTEFTLTISDLECADAASYYCQSDWLISSNGNTFGGGTEVVVTG | binding result | binds |

Give binding result for the following binder: R166.H8 (antibody, V domains shown, Rabbit monoclonal; also called clone R166.H8) VH: QSVEESGGRLVTPGTPLTLTCTVSGFSLSSFAMSWVRQAPGKGLEWIGIIYATGGTRDYATWAAGRFTISKTSTTVGLKMTSPTTEDTATYFCARDRSPDYSAAFNLWGQGTLVTVSS VL: IVMTQTPSSKSVPVGDTVTINCQASESVYSNNHLAWFQQKPGQPPKLLIYSASTLESGVPSRFKGSGSGTQFTLTISGVQCDDAATYYCAGYKSSDTDGTSFGGGTEVVVKG
binds

This collection of values is drawn from patent US20220281997A1.
